Record type: IC50 measurement. Applies to: CCR-3 receptor (Homo sapiens)
Readout Kind: IC50 (µM)

• COc1cc(NC(=O)N[C@@H]2CCC[C@H]2N(C)CCc2ccc(Cl)cc2)cc(OC)c1OC.Cl (racemic) [Compound 6, hydrochloride] = 5.4
• CS(=O)(=O)c1ccc(C(=O)N[C@@H]2CCC[C@H]2NCCCc2ccc(Cl)cc2)cc1.Cl (racemic) [Compound 2, hydrochloride] = 6.8

a = COc1ccc(-c2cnc(SCC(=O)N[C@@H]3CCC[C@H]3N(C)CCCc3ccc(Cl)cc3)nc2)cc1OC.Cl (racemic) [Compound 9, hydrochloride]
b = COc1ccc(-c2cnc(SCC(=O)N[C@@H]3CCC[C@H]3NCCCc3ccc(Cl)cc3)nc2)cc1OC.Cl (racemic) [Compound 1, hydrochloride]
Q: Which entry shows the lesser value of IC50 here, a or b ? Reply briefly: the label of your chosen item.
Result: a

###

Entries and their measured melting point follow.

• CN(CCc1ccc(Cl)cc1)[C@@H]1CCC[C@H]1NC(=O)c1ccc(S(C)(=O)=O)cc1.Cl (racemic) = 179 to 179.3 °C
• COc1cc(NC(=O)N[C@@H]2CCC[C@H]2N(C)CCc2ccc(Cl)cc2)cc(OC)c1OC.Cl (racemic) = 97 to 105 °C
• COc1ccc(-c2cnc(SCC(=O)N[C@@H]3CCC[C@H]3N(C)CCCc3ccc(Cl)cc3)nc2)cc1OC.Cl (racemic) = 91.5 to 98.5 °C

Note: attention shifts to another entry.
Q: Give the reported value of melting point for this record: CN(CCCc1ccc(Cl)cc1)[C@@H]1CCC[C@H]1NC(=O)c1ccc(S(C)(=O)=O)cc1.Cl (racemic)
Result: 109 to 113 °C
